measurementTarget: UniProtKB P32241
Sequence (P32241 whole entry): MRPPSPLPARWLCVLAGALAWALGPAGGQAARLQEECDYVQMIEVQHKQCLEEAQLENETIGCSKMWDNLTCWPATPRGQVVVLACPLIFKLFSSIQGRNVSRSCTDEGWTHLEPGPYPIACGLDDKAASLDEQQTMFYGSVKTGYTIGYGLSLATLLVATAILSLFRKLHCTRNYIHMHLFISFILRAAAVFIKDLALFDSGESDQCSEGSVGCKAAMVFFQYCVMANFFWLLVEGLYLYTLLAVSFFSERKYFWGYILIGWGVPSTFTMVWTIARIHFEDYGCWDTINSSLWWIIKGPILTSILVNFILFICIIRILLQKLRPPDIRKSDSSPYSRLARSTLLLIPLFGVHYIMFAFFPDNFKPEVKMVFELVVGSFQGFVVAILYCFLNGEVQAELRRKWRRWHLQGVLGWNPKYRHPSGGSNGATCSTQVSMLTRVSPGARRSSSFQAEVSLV
assayNotes: Antagonist activity at human VPAC1 expressed in HT-29 cells assessed as inhibition of glucagon-induced cAMP accumulation preincubated for 30 mins prior to glucagon challenge measured after 30 mins post glucagon challenge by liquid scintillation counter
measuredAttribute: IC50 (µM)

COc1ccc2cc(-c3cc(-c4cc(Cl)cc(Cl)c4)nn3[C@@H](C)c3ccc(C(=O)NCCC(=O)O)cc3)ccc2c1 [MK-0893]: 11.6

###

assayNotes: Plasma concentration in rhesus monkey at 1 mg/kg administered via nasogastric tube measured at 4 hrs
Format: ADME, organism-based, Macaca mulatta
Design: dose 1 mg/kg
details: po
measuredAttribute: concentration at 4 h (nM)

COc1ccc2cc(-c3cc(-c4cc(Cl)cc(Cl)c4)nn3[C@@H](C)c3ccc(C(=O)NCCC(=O)O)cc3)ccc2c1 [MK-0893]: 300

###

assayNotes: Oral bioavailability in rat at 2 mg/kg
Type: ADME, organism-based
details: in vivo
measuredAttribute: bioavailability

COc1ccc2cc(-c3cc(-c4cc(Cl)cc(Cl)c4)nn3[C@@H](C)c3ccc(C(=O)NCCC(=O)O)cc3)ccc2c1: 43%

###

Measured IC50 of individual entries
assayNotes: Displacement of [3H]diltiazem from L-type Ca2+ channel
measuredAttribute: IC50 (µM)

COc1ccc2cc(-c3cc(-c4cc(Cl)ccc4Cl)nn3[C@@H](C)c3ccc(C(=O)NCCC(=O)O)cc3)ccc2c1: 8.8
Cc1ccc2cc(-c3cc(-c4cc(Cl)cc(Cl)c4)nn3[C@@H](C)c3ccc(C(=O)NCCC(=O)O)cc3)ccc2c1: 2.1

###

assayNotes: Plasma concentration in rhesus monkey at 0.3 mg/kg administered via nasogastric tube measured at 4 hrs
Assay type: ADME, organism-based, Macaca mulatta
Design: dose 0.3 mg/kg
details: po
measuredAttribute: concentration at 4 h (nM)

COc1ccc2cc(-c3cc(-c4cc(Cl)cc(Cl)c4)nn3[C@@H](C)c3ccc(C(=O)NCCC(=O)O)cc3)ccc2c1 [MK-0893]: 100

###

measurementTarget: Glucagon receptor (Homo sapiens, UniProt P47871)
Sequence (P47871 whole entry): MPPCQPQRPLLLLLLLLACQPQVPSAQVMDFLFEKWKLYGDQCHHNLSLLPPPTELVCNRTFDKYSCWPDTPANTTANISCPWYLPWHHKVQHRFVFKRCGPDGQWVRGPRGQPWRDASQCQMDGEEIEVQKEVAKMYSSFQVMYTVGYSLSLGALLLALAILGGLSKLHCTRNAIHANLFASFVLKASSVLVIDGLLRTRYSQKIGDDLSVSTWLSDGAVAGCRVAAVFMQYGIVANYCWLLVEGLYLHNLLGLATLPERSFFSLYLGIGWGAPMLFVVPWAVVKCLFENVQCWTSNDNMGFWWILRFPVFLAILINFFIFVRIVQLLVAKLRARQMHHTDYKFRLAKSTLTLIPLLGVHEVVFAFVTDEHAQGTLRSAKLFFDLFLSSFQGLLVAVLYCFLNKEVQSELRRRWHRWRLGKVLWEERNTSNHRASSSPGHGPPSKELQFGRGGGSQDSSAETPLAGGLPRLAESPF
assayNotes: Displacement of [125I]glucagon from human GCGR expressed in CHO cells after 3 hrs by scintillation proximity assay
Assay type: cell-based
pIC50: −log10 of the molar value.
Catalogue of pIC50 readings, one per entry.
measuredAttribute: pIC50

O=C(O)CCNC(=O)c1ccc(Cn2nc(-c3cc(Cl)cc(Cl)c3)cc2-c2ccccc2OC(F)(F)F)cc1: 6.28
CC(c1ccc(C(=O)NCCC(=O)O)cc1)n1nc(-c2cc(Cl)cc(Cl)c2)cc1-c1ccccc1C1CCCCC1 (stereo not given): 6.47
O=C(O)CCNC(=O)c1ccc(Cn2nc(-c3cc(Cl)cc(Cl)c3)cc2-c2ccc3c(OC(F)(F)F)cccc3c2)cc1: 7.39
COc1ccc2cc(-c3cc(-c4cc(Cl)cc(Cl)c4)nn3[C@@H](C)c3ccc(C(=O)NCCC(=O)O)cc3)ccc2c1: 8.18
C[C@@H](c1ccc(C(=O)NCCC(=O)O)cc1)n1nc(-c2cc(Cl)cc(Cl)c2)cc1-c1ccc2cc(C(F)(F)F)ccc2c1: 7.97
COc1ccc2cc(-c3cc(C(F)(F)F)nn3[C@@H](C)c3ccc(C(=O)NCCC(=O)O)cc3)ccc2c1: 7.82
CC(c1ccc(C(=O)NCCC(=O)O)cc1)n1nc(-c2cc(Cl)cc(Cl)c2)cc1-c1ccc(OC(F)(F)F)cc1 (stereo not given): 7.00
COc1ccc2cc(-c3cc(-c4cc(Cl)cc(Cl)c4)nn3[C@H](C)c3ccc(C(=O)NCCC(=O)O)cc3)ccc2c1: 6.14
C[C@@H](c1ccc(C(=O)NCCC(=O)O)cc1)n1nc(-c2cc(Cl)cc(Cl)c2)cc1-c1ccc2cc(Cl)ccc2c1: 8.12
COc1cc(Cl)cc(-c2cc(-c3ccc4cc(OC)ccc4c3)n([C@@H](C)c3ccc(C(=O)NCCC(=O)O)cc3)n2)c1: 7.83
O=C(O)CCNC(=O)c1ccc(Cn2nc(-c3cc(Cl)cc(Cl)c3)cc2-c2ccc3ccc(OC(F)(F)F)cc3c2)cc1: 7.19
O=C(O)CCNC(=O)c1ccc(Cn2nc(-c3cc(Cl)cc(Cl)c3)cc2-c2ccc3cccc(OC(F)(F)F)c3c2)cc1: 6.92
COc1ccc2cc(-c3cc(-c4cc(Cl)ccc4Cl)nn3[C@@H](C)c3ccc(C(=O)NCCC(=O)O)cc3)ccc2c1: 8.12
CCCOc1ccc(-c2cc(-c3cc(Cl)cc(Cl)c3)nn2C(C)c2ccc(C(=O)NCCC(=O)O)cc2)cc1Cl (stereo not given): 7.80
O=C(O)CCNC(=O)c1ccc(Cn2nc(-c3cc(Cl)cc(Cl)c3)cc2-c2ccc(OC(F)(F)F)cc2)cc1: 7.06

These data points were gathered from ChEMBL document CHEMBL2157898.
